measured.on: ROCK2 (Homo sapiens)
Sequence (O75116 whole entry, species assumed): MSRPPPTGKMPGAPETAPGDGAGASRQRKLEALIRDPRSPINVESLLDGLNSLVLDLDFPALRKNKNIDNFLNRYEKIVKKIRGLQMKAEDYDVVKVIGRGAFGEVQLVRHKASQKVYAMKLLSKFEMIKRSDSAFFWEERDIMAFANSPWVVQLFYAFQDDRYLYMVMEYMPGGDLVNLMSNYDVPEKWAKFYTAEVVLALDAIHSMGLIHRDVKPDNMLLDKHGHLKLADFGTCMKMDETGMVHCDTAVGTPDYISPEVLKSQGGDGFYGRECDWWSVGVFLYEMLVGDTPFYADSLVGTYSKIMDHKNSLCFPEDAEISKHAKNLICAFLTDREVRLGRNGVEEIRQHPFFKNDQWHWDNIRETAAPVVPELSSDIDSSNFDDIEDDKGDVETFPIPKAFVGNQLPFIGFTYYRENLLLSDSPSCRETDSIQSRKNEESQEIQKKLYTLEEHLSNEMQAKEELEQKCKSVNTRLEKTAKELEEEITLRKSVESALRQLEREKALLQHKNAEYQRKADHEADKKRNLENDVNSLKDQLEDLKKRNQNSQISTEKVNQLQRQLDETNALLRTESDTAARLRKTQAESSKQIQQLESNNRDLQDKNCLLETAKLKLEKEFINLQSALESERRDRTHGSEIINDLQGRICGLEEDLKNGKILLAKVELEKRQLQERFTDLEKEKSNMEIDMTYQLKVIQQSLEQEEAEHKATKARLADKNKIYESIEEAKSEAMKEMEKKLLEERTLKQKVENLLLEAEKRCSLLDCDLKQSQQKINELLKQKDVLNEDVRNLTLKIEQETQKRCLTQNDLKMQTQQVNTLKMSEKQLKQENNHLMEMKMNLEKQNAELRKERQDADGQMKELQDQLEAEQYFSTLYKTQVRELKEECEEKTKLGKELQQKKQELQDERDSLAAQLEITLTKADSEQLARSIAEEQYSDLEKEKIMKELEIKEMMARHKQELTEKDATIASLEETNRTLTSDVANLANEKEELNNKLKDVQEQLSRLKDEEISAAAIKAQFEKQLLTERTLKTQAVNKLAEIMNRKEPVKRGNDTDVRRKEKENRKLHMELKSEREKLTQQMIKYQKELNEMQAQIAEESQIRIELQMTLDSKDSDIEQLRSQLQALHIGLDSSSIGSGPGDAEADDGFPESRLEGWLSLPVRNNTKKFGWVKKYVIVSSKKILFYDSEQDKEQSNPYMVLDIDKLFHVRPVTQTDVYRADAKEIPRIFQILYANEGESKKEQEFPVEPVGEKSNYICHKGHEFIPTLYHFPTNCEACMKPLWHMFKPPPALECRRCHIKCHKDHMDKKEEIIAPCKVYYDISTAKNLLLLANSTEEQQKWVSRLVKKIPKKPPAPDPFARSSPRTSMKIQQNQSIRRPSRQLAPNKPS
measurement.notes: ROCK Kinase Assay (Kinase-Glo luminescent)
Format: biochemical
applied.conditions: IC50 converted to Ki by Cheng-Prusoff; ATP 5 μM, ROCK2 1 nM, 180 min; read-out: ROCK2 Ki
result.type: Ki (nM)

1. NCC(C(=O)Nc1ccc2cnccc2c1)c1cccc(F)c1 (stereo not drawn) = 1
2. Cc1ccccc1C(CN)C(=O)Nc1ccc2cnccc2c1 (stereo not drawn) = 1
3. NCC(C(=O)Nc1ccc2cnccc2c1)c1cccc(O)c1 (stereo not drawn) = 1.3
4. NCC(C(=O)Nc1ccc2cnccc2c1)c1ccc(C(F)(F)F)cc1 (stereo not drawn) = 1.8
5. NCC(C(=O)Nc1ccc2cnccc2c1)c1ccc(O)cc1 (stereo not drawn) = 0.6
6. NCC(C(=O)Nc1ccc2cnccc2c1)c1ccccc1Cl (stereo not drawn) = 1.3
